Collected protein stability index values appear next to each entry.
B1: C9orf25 (parent)
chain: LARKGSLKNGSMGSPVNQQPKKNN

- Variants of: B1
- Experiment: protein stability index of a GFP-peptide fusion (GPS, HEK-293T) (PSI 1-6); higher = more stable;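 also: lentivirally expressed fusions sorted by FACS into six bins by GFP to DsRed ratio, PSI derived from sequencing read proportions per bin multiplied by bin number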
- Recorded Conditions: c terminus: a fixed tail appended

Use these answered entries as a reference point.
[[record]]
mutant_label = "R3F"
quantity_measured = "protein stability index"
result = 4.54

[[record]]
mutant_label = "K22C"
quantity_measured = "protein stability index"
result = 4.49

[[record]]
mutant_label = "P15Q"
quantity_measured = "protein stability index"
result = 5.26


input: // protein stability index lookup, key: G10T
output: 4.81

input: Recorded protein stability index of K21L , please.
output: 4.25

input: Form field: reported protein stability index of P15V
output: 4.62

input: Field request: protein stability index | item: K22D
output: 4.21

input: Quick check: protein stability index of N23R ?
output: 4.18
